target: UniProt Q9NR97; assay: TLR8 inhibition reporter assay (HEK-Blue cells, SEAP reporter, R848 stimulation); settings: HEK-Blue cells overexpressing human TLR8, SEAP reporter, R848 15.9 μM
Sequence (Q9NR97 27-1041): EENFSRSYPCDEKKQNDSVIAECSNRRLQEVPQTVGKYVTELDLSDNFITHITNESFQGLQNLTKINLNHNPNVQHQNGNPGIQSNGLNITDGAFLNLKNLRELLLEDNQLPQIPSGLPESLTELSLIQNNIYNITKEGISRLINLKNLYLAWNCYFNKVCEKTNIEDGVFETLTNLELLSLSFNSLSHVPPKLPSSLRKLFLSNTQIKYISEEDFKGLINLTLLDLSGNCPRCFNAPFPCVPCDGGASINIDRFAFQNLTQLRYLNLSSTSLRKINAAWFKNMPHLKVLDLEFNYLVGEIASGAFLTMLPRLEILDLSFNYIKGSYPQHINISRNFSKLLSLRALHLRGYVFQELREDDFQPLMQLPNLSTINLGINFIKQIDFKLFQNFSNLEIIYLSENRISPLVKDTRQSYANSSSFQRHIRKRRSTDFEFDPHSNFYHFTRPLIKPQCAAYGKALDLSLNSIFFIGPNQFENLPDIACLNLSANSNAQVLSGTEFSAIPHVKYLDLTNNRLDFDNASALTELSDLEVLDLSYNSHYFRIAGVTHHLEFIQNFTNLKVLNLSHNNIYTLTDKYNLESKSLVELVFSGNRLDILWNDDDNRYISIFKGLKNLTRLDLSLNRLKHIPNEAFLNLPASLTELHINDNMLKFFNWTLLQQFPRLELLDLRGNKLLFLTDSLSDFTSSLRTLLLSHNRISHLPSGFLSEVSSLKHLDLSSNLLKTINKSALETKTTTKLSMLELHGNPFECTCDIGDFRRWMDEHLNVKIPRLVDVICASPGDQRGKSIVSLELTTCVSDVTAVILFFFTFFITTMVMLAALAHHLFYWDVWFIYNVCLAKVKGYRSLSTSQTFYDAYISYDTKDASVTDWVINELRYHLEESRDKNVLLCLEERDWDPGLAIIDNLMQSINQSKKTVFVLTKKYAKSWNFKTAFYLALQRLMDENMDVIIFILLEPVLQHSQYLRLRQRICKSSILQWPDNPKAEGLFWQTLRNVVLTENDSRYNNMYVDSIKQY
pIC50: −log10 of the molar value.
value.kind: pIC50

Problem: What measured pIC50 is associated with CCN(CC)CC(=O)N1CCOC(c2ccc3[nH]c(-c4cc(OC)c5ncnn5c4)c(C(C)C)c3c2)C1 (stereo not shown) on UniProt Q9NR97?
Result: 8.33

Problem: What measured pIC50 is associated with Cc1c(-c2[nH]c3ccc(C4CC(N(C)C(=O)CN(C)C)C4)cc3c2C(C)C)cn2ncnc2c1C (stereo not shown) [Example 589] on UniProt Q9NR97?
Result: 8.55

Problem: What measured pIC50 is associated with Cc1c(-c2[nH]c3ccc(C4CN(CCS(C)(=O)=O)C4)cc3c2C(C)C)cn2cnnc2c1C on UniProt Q9NR97?
Result: 7.70

Problem: What measured pIC50 is associated with COCCC(=O)N1CCCC(c2ccc3[nH]c(-c4cc(C)nc(C)c4)c(C(C)C)c3c2)C1 (stereo not shown) [Example 207] on UniProt Q9NR97?
Result: 7.01

Problem: What measured pIC50 is associated with Cc1cc(-c2[nH]c3ccc(CC4CCCN4Cc4ccccc4)cc3c2C(C)C)cn2ncnc12 (single isomer, unassigned) [Example 396] on UniProt Q9NR97?
Result: 8.55

[A] COc1cc(-c2[nH]c3ccc(C4CCC(N5CC(O)C5)CC4)cc3c2C(C)C)cn2ncnc12 (single isomer, unassigned) [Example 22]
[B] Cc1cc(-c2[nH]c3ccc(C4CCC(NC5COC5)CC4)cc3c2C(C)C)cc(C)n1 (stereo not shown) [Example 60]
Problem: Hello, I am sorting some records. Could you say if A or B has the smaller pIC50 value? Pick one; state its label.
Result: A
(A: 8.41, B: 8.74)
